// data source = the supplement of paper PMC10681739

Items are presented alongside their recorded ETS1 binding intensity.
Experimental system: ETS1 (UniProt P14921)
Sequence: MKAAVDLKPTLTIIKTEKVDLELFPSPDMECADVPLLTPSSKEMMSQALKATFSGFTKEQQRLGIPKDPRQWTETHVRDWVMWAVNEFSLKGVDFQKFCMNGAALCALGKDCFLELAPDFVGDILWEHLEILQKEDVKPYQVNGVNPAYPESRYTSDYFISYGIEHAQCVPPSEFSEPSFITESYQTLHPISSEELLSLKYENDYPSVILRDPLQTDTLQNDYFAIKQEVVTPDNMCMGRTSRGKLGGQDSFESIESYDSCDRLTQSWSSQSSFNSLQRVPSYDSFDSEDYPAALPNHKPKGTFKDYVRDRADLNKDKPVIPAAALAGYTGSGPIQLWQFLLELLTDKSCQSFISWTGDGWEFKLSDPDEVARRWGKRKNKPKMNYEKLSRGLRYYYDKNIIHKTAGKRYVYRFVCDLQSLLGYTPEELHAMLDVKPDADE
Assay comment: ETS1 binding intensity (PBM fluorescence) in presence of RUNX1, normalised to ETS1-only experiment (arbitrary fluorescence units); higher = stronger binding
Reported conditions: ETS1 concentration 1 nM; RUNX1 concentration 25 nM
Value type: ETS1 binding intensity

CCCTTGCCAGAGGAAGCCACTGCCACCGCAGAAGCA :: 1740
TAGCCGTACGGAAATGTTTGTGGTTCTCTGCATCTA :: 1010
GTGCGGAAGCGCGCCAAGGCACGTGACCGCTTCTGT :: 475
CCCACTTCCTGTCCCTGCATGCTGTGGGGCAGGCAG :: 1570
CCCACCCGGAAATGAGCCAACAGTGGTTTCGCCCCG :: 2010
TACAATTCGCACCGGAACTTGCGGCCCGGCTTCATT :: 4640
ACAAGGAGGAAAAGGAAATGAACCACGAATAGCAAA :: 1160
CCGCCGACACACTTCCGGCGGCCACCACAGGGTATT :: 3660
CGAAGCCAGGAAATAAGGATAAACCACAGAAAGAAA :: 3180
TCAGAGACTTCCGCTCAGCAGCAGCTGCGGCCAGGC :: 1330
ATGGGGAACGGGAAATACGGCGGGAACCACAATCGC :: 1700
GAGGTTGGGAAGTTCTTCCTTTGGTCTGACCACAGT :: 596
TGTGAGAAGCCGGATCCTGTGGTGACCCAGTGGCCT :: 479
GTGAATGAGGGGGAAGGAAGTGGTTTGGAAAAATAC :: 2790
GACCAGGAAACGGGGCGTGGCGGCCGCCGTGGTTAC :: 485
TGCATGCAACAGGAAGTGGGGTGTGGTTTGTTCTGG :: 39100
AAAACAACTCCAGGATGTGGTTTTACTCAGAATGTA :: 7410
CAGGCAGGATGTTGACTCAGCTGCCAAGTGGTTTTG :: 1760
TCAGGAAGTGGTGTGACCAGCATGTGAACCGCGGCA :: 1110
ACTAGAAGCGGAAGTAGTTGTGGGCGCCTTTGCAAC :: 7470
AGTTGTGTTTTAGGATGTGGTCAAAGCCCAACAGAG :: 2150
ATTTAGGAGGAAGTTTCCAGTACCACAACCTCACAG :: 709
CCCTCTCTTCTTCCTCCCCCACCACAAAAGTCACAG :: 641
CGTTATTTCCGGGGCTGGGTTAACGCAGCGGTTCCA :: 692
AGACCCGGACCGGAACCTTGGCGCGGTGACGCTAGT :: 975
